Below is a list of entries, each paired with its recorded MIC value.
System: B. pseudomallei Bp82
Assay: microbe, parasite or virus in culture
Format: cell-based
Settings: Burkholderia pseudomallei, BP82, read-out: Minimum inhibitory concentration, B. pseudomallei Bp82

# Substance smiles, Reading
rows = [
    ("O=C(O)c1c(F)ccc2c1OB(O)[C@@H](NC(=O)[C@H](NC(=O)N1CCN(S(=O)(=O)c3ccc(O)c(O)c3Cl)C1=O)c1ccc(P(=O)(O)O)cc1)C2", "< 1 mg/L"),
]

QUERY: Enter MIC (test system B. pseudomallei Bp82) for O=C(NCCN1CCN(C(=O)N[C@@H](C(=O)N[C@H]2Cc3ccc(F)c(C(=O)O)c3OB2O)c2cc(F)c(O)c(O)c2Cl)C(=O)C1=O)Nc1cccnc1
RESULT: < 1 mg/L

QUERY: Report value: MIC, system: B. pseudomallei Bp82, compound: CN(CCN1CCN(C(=O)N[C@@H](C(=O)N[C@H]2Cc3ccc(F)c(C(=O)O)c3OB2O)c2cc(F)c(O)c(O)c2Cl)C(=O)C1=O)Cc1cccc(C(N)=O)c1
RESULT: < 1 mg/L
